# Tested on: A. baumannii ATCC 19606
# METHOD: MIC, broth microdilution (CO-ADD), A. baumannii
# Type: cell-based, Acinetobacter baumannii
# STATED CONDITIONS: Acinetobacter baumannii, ATCC19606, top dose 32 µg/mL
ENDPOINT NAME: MIC

Query :: Item COc1cccc2c(C(=O)NCCCNCCCCCCNCCCNC(=O)c3c[nH]c4c(OC)cccc34)c[nH]c12 [Compound 17b] has what recorded MIC?
Result :: > 40 µM

Query :: COc1cccc2c(C(=O)NCCCNCCCCCCCCCCNCCCNC(=O)c3c[nH]c4c(OC)cccc34)c[nH]c12.O=C(O)C(F)(F)F.O=C(O)C(F)(F)F [Compound 17e] , same question.
Result :: > 37 µM

Query :: Next: COc1ccc2[nH]cc(C(=O)NCCCNCCCCCCCCCCCCNCCCNC(=O)c3c[nH]c4ccc(OC)cc34)c2c1.O=C(O)C(F)(F)F.O=C(O)C(F)(F)F [Compound 14f]
Result :: > 36 µM

Query :: Next compound: O=C(NCCCNCCCCCCCCCCCCNCCCNC(=O)c1c[nH]c2c(F)cccc12)c1c[nH]c2c(F)cccc12.O=C(O)C(F)(F)F.O=C(O)C(F)(F)F [Compound 16f]
Result :: > 37 µM

Query :: Same again, this time with O=C(NCCCNCCCCCCNCCCNC(=O)c1c[nH]c2ccc(Br)cc12)c1c[nH]c2ccc(Br)cc12 [Compound 13b]
Result :: ≤ 0.28 µM

Query :: Similarly, Cc1ccc2[nH]cc(C(=O)NCCCNCCCCCCCCCCNCCCNC(=O)c3c[nH]c4ccc(C)cc34)c2c1 [Compound 15e] ?
Result :: 19.3 µM

Query :: Okay, and COc1ccc2[nH]cc(C(=O)NCCCNCCCCCCCCNCCCNC(=O)c3c[nH]c4ccc(OC)cc34)c2c1 [Compound 14d] ?
Result :: > 38 µM

Query :: O=C(NCCCNCCCCCCCCCCNCCCNC(=O)c1c[nH]c2ccc(Br)cc12)c1c[nH]c2ccc(Br)cc12 [Compound 13e] ?
Result :: 16.7 µM

Query :: Please answer likewise for Cc1cccc2c(C(=O)NCCCNCCCCCCCCNCCCNC(=O)c3c[nH]c4c(C)cccc34)c[nH]c12 [Compound 18d]
Result :: > 40 µM
